Just for reference, PubChem BioAssay (NCI) is where these values come from.

Each item that follows carries a reported TGI.
Test system: OVCAR-5 ovarian
Test: NCI tumour cell line growth inhibition, 48 h

Here is how some molecules turned out for TGI.
Cn1cc(-c2cc(N)n3nc(-c4c[nH]c5ccc(F)cc45)cc3n2)c2cc(Br)cnc21 : > 100 µM
COc1ccc(C(=O)Nc2ccc(-c3ccc4c(c3)NC(=O)/C4=C\c3ccc[nH]3)cc2)cc1 : > 100 µM
C#CCCCN(CCNc1ccnc2cc(Cl)ccc12)C(=O)CCC(=O)O[C@@H]1O[C@@H]2OC3(C)CC[C@H]4[C@H](C)CC[C@@H]([C@H]1C)[C@@]24OO3 : > 11.5 µM

Now consider the entry below.
What does the record list as TGI for COc1ccccc1Nc1nnc(-c2c[nH]c3ccccc23)o1 ?
32.2 µM

----------
Tested on: SF-268 CNS
Assay: NCI tumour cell line growth inhibition, 48 h
# reported TGI; entries follow
Report as a plain number; the unit µM is understood.

COc1ccc2c(c1)c(-c1cc3nc(-c4cn(C)c5ncc(Br)cc45)cc(N)n3n1)cn2C : 6.14

Now take the following compound into account.
What measured TGI goes with C=C1CCC2C3(C)COC(c4ccccc4F)OC3CCC2(C)C1C/C=C1/C(=O)OCC1O (centres undefined) ?
16.4

----------
GI50 values by entry
Test system: UACC-62 melanoma
Assay: NCI tumour cell line growth inhibition, 48 h

Below, each entry is followed by its recorded GI50 result.
COc1ccc2c(c1)c(-c1cc3nc(-c4cn(C)c5ncc(Br)cc45)cc(N)n3n1)cn2C : 1560 nM
Cn1cc(-c2cc(N)n3nc(-c4c[nH]c5ccc(F)cc45)cc3n2)c2cc(Br)cnc21 : 17700 nM
C=C1CCC2C3(C)COC(c4ccccc4F)OC3CCC2(C)C1C/C=C1/C(=O)OCC1O (centres undefined) : 3170 nM

Consider now this further compound.
Entry C#CCCCN(CCNc1ccnc2cc(Cl)ccc12)C(=O)CCC(=O)O[C@@H]1O[C@@H]2OC3(C)CC[C@H]4[C@H](C)CC[C@@H]([C@H]1C)[C@@]24OO3 : reported GI50 = ?
878 nM

----------
System: KM12 colon
Test: NCI tumour cell line growth inhibition, 48 h; in the data active means GI50 below about 0.43 µM; inactive means the rest
Tick one outcome: true (1) (active), false (0) (inactive)

Illustrative cases are given below, each with its answer.
COc1ccc(C(=O)Nc2ccc(-c3ccc4c(c3)NC(=O)/C4=C\c3ccc[nH]3)cc2)cc1 : false (0)
O=C(Nc1cccc(-n2cnc3cc(-c4ccc(O)cc4)ccc32)c1)C1CC1 : true (1)
Cn1cc(-c2cc(N)n3nc(-c4c[nH]c5ccc(F)cc45)cc3n2)c2cc(Br)cnc21 : false (0)

Next up:
Outcome logged for C#CCCCN(CCNc1ccnc2cc(Cl)ccc12)C(=O)CCC(=O)O[C@@H]1O[C@@H]2OC3(C)CC[C@H]4[C@H](C)CC[C@@H]([C@H]1C)[C@@]24OO3 in this assay:
false (0)

----------
Tested on: IGROV1 ovarian
Assay: NCI tumour cell line growth inhibition, 48 h
measure: GI50

C#CCCCN(CCNc1ccnc2cc(Cl)ccc12)C(=O)CCC(=O)O[C@@H]1O[C@@H]2OC3(C)CC[C@H]4[C@H](C)CC[C@@H]([C@H]1C)[C@@]24OO3 : 3.01 µM

Please provide the recorded GI50 for COc1ccccc1Nc1nnc(-c2c[nH]c3ccccc23)o1 , tested on IGROV1 ovarian.
0.682 µM

Next record, please: COc1ccc(C(=O)Nc2ccc(-c3ccc4c(c3)NC(=O)/C4=C\c3ccc[nH]3)cc2)cc1
37.6 µM

Then what about the molecule Cn1cc(-c2cc(N)n3nc(-c4c[nH]c5ccc(F)cc45)cc3n2)c2cc(Br)cnc21 ?
14.3 µM
